# melting point listing for each entry below
recorded.endpoint: melting point

- molecule: "O=S(=O)(c1ccc(Nc2nccc(Nc3ccc(F)cc3)n2)cc1)N(CCNCC(F)(F)F)C1CCN(Cc2ccccc2)CC1"
  result: "137 to 138 °C"
- molecule: "Cc1ccc(S(=O)(=O)Cc2c(C#N)nn(-c3ccccc3)c2O)cc1"
  result: "214 °C"
- molecule: "O=C(O)C(Cc1ccc(OCCn2c(=O)sc3cc(C(=NO)C4CC4)ccc32)cc1)OCC(F)(F)F (centres undefined)"
  result: "88 to 90 °C"
- molecule: "COc1ccc(Oc2cccc(CCN(C)CCN(O)C(N)=O)c2)cc1"
  result: "87 to 88.5 °C"
- molecule: "COc1ccc(-c2c(Br)c(CN3C(=O)CCC3=O)nc3sc4c(c23)CCNC4)cc1"
  result: "219 to 221 °C"
- molecule: "O=C1N(c2cc(Cl)cc(Cl)c2)C(=O)C2(Cc3ccc(Br)cc3)CC(F)(F)CN12 (centres undefined)"
  result: "160 °C"
- molecule: "CCCNC(=NS(=O)(=O)N(C)C)N1CC(c2ccccc2)C(c2ccc(Cl)cc2)=N1 (centres undefined)"
  result: "127 to 129 °C"
- molecule: "Nc1nc2c(s1)CCN(CC=Cc1cccc(OCc3ccccn3)c1)CC2"
  result: "35 to 40 °C"
- molecule: "CCCc1ccc2nnc(C(=O)OCC)cc2c1"
  result: "88 to 89 °C"

* * *

Form field: melting point (one value per entry).
recorded.endpoint: melting point

- compound: "CC(=O)NCCn1ccc2c1-c1cccc(Cl)c1CC2"
  recorded.endpoint: "melting point"
  result: "124 to 126 °C"
- compound: "COC(=O)c1ccc(/C=C(\\C)c2ccc3c(c2)SCCCN3C)cc1"
  recorded.endpoint: "melting point"
  result: "97 to 98 °C"
- compound: "COc1cc(Nc2c(C#N)cnc3cc(OCCN4CCN(C)CC4)c(OC)cc23)c(Cl)cc1Cl"
  recorded.endpoint: "melting point"
  result: "165 to 167 °C"
- compound: "CCCCc1ccc(Oc2ccc(C#CC(C)N(O)C(N)=O)o2)cc1 (stereo not given)"
  recorded.endpoint: "melting point"
  result: "116 to 118 °C"
- compound: "NC(=O)c1sc2nccc(N3CCCN(c4cccc([N+](=O)[O-])c4)CC3)c2c1N"
  recorded.endpoint: "melting point"
  result: "180 to 185 °C"
- compound: "CC=Cc1c(-c2ccc(S(C)(=O)=O)cc2)cnn(-c2ccc(F)c(F)c2)c1=O"
  recorded.endpoint: "melting point"
  result: "149 to 150 °C"
- compound: "CC(C#CCCCc1ccccc1)N(O)C(N)=O (stereo not given)"
  recorded.endpoint: "melting point"
  result: "78 to 81 °C"
- compound: "c1ccc(N2CCN(Cc3n[nH]c4ccccc34)CC2)nc1"
  recorded.endpoint: "melting point"
  result: "148 to 150 °C"
- compound: "CC1=C2CCc3cc(Cl)ccc3N2CCC1=O"
  recorded.endpoint: "melting point"
  result: "112 to 114 °C"
- compound: "O=C(CCCCCCC(c1ccccc1)(c1ccccc1)c1ccccc1)NO"
  recorded.endpoint: "melting point"
  result: "100 to 103 °C"

* * *

recorded.endpoint: melting point

- mol.smiles: "COC(=O)NC(=O)NS(=O)(=O)c1ccc([N+](=O)[O-])cc1"
  result: "150 to 158 °C"
- mol.smiles: "COc1ccc(Cn2cc([N+](=O)[O-])c(C(N)=O)n2)cc1"
  result: "192 to 193 °C"
- mol.smiles: "O=C(COc1ccc2ccccc2c1)N1CCCN(c2cc(N3CCCC3)nc(N3CCCC3)n2)CC1"
  result: "103 to 110 °C"
- mol.smiles: "CCc1cc2c(ccc(=O)n2Cc2ccc(NC(=O)c3ccccc3C(=O)O)cc2)c(CC)n1"
  result: "237 to 240 °C"
- mol.smiles: "Cn1c(NC(=O)OCc2ccccc2)c(-c2ccccc2)c2cc(Cl)ccc21"
  result: "164 °C"
